TARGET ENTITY: α1β2γ2 GABAA receptor (Homo sapiens (Human), UniProt P14867+P47870)
CONDITION SUMMARY: LTK, read-out: GABA (α1β2γ2) Qpatch in Ltk, % efficacy at 10 μM, Qpatch, Ltk cells, 10 μM compound, 2 μM GABA
MEASUREMENT NAME: Emax at 10 µM

(Q) Item CC(=O)N1CCN(CC(=O)[C@H]2CC[C@H]3[C@@H]4CC[C@H]5C[C@](C)(O)[C@@H](C)C[C@@H]5[C@H]4CC[C@]23C)CC1 has what recorded Emax at 10 µM?
(A) 100 to 500%

(Q) Item CC(=O)N1CCN(CC(=O)[C@H]2CC[C@H]3[C@@H]4CC[C@@H]5C[C@](C)(O)CC[C@@H]5[C@H]4CC[C@]23C)CC1 has what recorded Emax at 10 µM?
(A) 100 to 500%

(Q) Item C[C@@]1(O)CC[C@H]2[C@H](CC[C@@H]3[C@@H]2CC[C@]2(C)[C@@H](C(=O)CN4CCC(O)C4)CC[C@@H]32)C1 (stereo partly drawn) has what recorded Emax at 10 µM?
(A) 100 to 500%

(Q) Item COC[C@@]1(O)CC[C@H]2[C@@H](CC[C@@H]3[C@@H]2CC[C@]2(C)[C@@H](C(=O)CN4CCOCC4)CC[C@@H]32)C1 has what recorded Emax at 10 µM?
(A) 10 to 100%

(Q) Item CC(=O)N1CCN(CC(=O)[C@H]2CC[C@H]3[C@@H]4CC[C@H]5C[C@](C)(O)[C@H](C)C[C@@H]5[C@H]4CC[C@]23C)CC1 has what recorded Emax at 10 µM?
(A) 100 to 500%

(Q) Item C[C@]12CC[C@H]3[C@@H](CC[C@@H]4C[C@@](O)(CF)CC[C@@H]43)[C@@H]1CC[C@@H]2C(=O)CN1CCOCC1 has what recorded Emax at 10 µM?
(A) 10 to 100%

(Q) Item C[C@@]1(O)CC[C@H]2[C@H](CC[C@@H]3[C@@H]2CC[C@]2(C)[C@@H](C(=O)CN4CCN(S(C)(=O)=O)CC4)CC[C@@H]32)C1 has what recorded Emax at 10 µM?
(A) > 500%

(Q) Item C[C@@]1(O)CC[C@H]2[C@H](CC[C@@H]3[C@@H]2CC[C@]2(C)[C@@H](C(=O)CN4CCCOCC4)CC[C@@H]32)C1 has what recorded Emax at 10 µM?
(A) > 500%

(Q) Item COC[C@@]1(O)CC[C@H]2[C@H](CC[C@@H]3[C@@H]2CC[C@]2(C)[C@@H](C(=O)CN4CCN(S(C)(=O)=O)CC4)CC[C@@H]32)C1 has what recorded Emax at 10 µM?
(A) > 500%

(Q) Item C[C@@H]1CN(CC(=O)[C@H]2CC[C@H]3[C@@H]4CC[C@@H]5C[C@](C)(O)CC[C@@H]5[C@H]4CC[C@]23C)CCO1 has what recorded Emax at 10 µM?
(A) 100 to 500%

(Q) Item C[C@@H]1COCCN1CC(=O)[C@H]1CC[C@H]2[C@@H]3CC[C@@H]4C[C@](C)(O)CC[C@@H]4[C@H]3CC[C@]12C has what recorded Emax at 10 µM?
(A) 100 to 500%

(Q) Item CC[C@@]1(O)CC[C@H]2[C@H](CC[C@@H]3[C@@H]2CC[C@]2(C)[C@@H](C(=O)CN4CCN(S(C)(=O)=O)CC4)CC[C@@H]32)C1 has what recorded Emax at 10 µM?
(A) 100 to 500%

(Q) Item C[C@]12CC[C@H]3[C@@H](CC[C@@H]4C[C@@](O)(C(F)F)CC[C@@H]43)[C@@H]1CC[C@@H]2C(=O)CN1CCN(S(C)(=O)=O)CC1 has what recorded Emax at 10 µM?
(A) 100 to 500%

(Q) Item C[C@]12CC[C@H]3[C@@H](CC[C@@H]4C[C@@](O)(CF)CC[C@@H]43)[C@@H]1CC[C@@H]2C(=O)CN1CCN(S(C)(=O)=O)CC1 has what recorded Emax at 10 µM?
(A) > 500%

(Q) Item CC(=O)N1CCN(CC(=O)[C@H]2CC[C@H]3[C@@H]4CC[C@H]5C[C@](C)(O)CC[C@@H]5[C@H]4CC[C@]23C)CC1 has what recorded Emax at 10 µM?
(A) 100 to 500%

(Q) Item C[C@H]1C[C@H]2[C@@H](CC[C@@H]3[C@@H]2CC[C@]2(C)[C@@H](C(=O)CN4CCOCC4)CC[C@@H]32)C[C@]1(C)O has what recorded Emax at 10 µM?
(A) 10 to 100%

(Q) Item CNC(=O)N1CCN(CC(=O)[C@H]2CC[C@H]3[C@@H]4CC[C@@H]5C[C@](C)(O)CC[C@@H]5[C@H]4CC[C@]23C)CC1 has what recorded Emax at 10 µM?
(A) 100 to 500%

(Q) Item C[C@@H]1C[C@H]2[C@@H](CC[C@@H]3[C@@H]2CC[C@]2(C)[C@@H](C(=O)CN4CCOCC4)CC[C@@H]32)C[C@]1(C)O has what recorded Emax at 10 µM?
(A) 10 to 100%

Reference source for all entries: patent US11912737B2
